We begin with a simple list: items and their reported activation at 0.1 µM.
Target: UniProtKB P04062
Sequence (P04062 40-536): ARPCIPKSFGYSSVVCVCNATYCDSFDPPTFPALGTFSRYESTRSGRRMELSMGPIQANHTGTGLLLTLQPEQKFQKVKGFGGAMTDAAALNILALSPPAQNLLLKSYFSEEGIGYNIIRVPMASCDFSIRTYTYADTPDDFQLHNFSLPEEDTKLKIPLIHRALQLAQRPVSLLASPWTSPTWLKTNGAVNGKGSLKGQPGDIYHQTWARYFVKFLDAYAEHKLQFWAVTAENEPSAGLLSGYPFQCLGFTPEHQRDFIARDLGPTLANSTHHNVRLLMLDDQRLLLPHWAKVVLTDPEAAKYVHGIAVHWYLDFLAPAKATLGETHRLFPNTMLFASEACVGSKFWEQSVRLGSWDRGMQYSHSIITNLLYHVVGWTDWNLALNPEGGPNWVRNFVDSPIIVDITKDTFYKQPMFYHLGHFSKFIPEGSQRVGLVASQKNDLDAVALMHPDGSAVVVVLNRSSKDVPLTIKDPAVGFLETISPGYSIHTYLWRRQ
Test: Glucocerebrosidase (Gcase) activation assay, 4-methylumbelliferyl-beta-D-glucopyranoside substrate, fluorescence
Assay type: biochemical
Details: 0.25 h, pH 4.7, test compound at 0.1 μM, 10 nM GCase, 100 nM saposin C, read-out: Percent Gcase Activation 0.1 μM Test Compound
ASSAY_READOUT: activation at 0.1 µM

{"COMPOUND": "Cc1cc(C)n2ccc(C(=O)NC(C)c3nc(C4CCCCC4)no3)c2n1 (stereo not shown)", "ASSAY_READOUT": "activation at 0.1 µM", "VALUE_MEASURED": "10 to 20%"}
{"COMPOUND": "CCc1ccc(C(C)NC(=O)c2ccn3c(C)cc(C)nc23)cc1 (stereo not shown)", "ASSAY_READOUT": "activation at 0.1 µM", "VALUE_MEASURED": "> 20%"}
{"COMPOUND": "Cc1cc(C)n2ccc(C(=O)N[C@@H](C)c3ccccc3F)c2n1", "ASSAY_READOUT": "activation at 0.1 µM", "VALUE_MEASURED": "> 20%"}
{"COMPOUND": "Cc1cc(C)n2ccc(C(=O)NC(CO)c3ccc(C(C)C)cc3)c2n1 (stereo not shown)", "ASSAY_READOUT": "activation at 0.1 µM", "VALUE_MEASURED": "< 10%"}
{"COMPOUND": "C[C@H](NC(=O)c1ccn2cc(-c3ccc(F)cc3)cnc12)C1CC1", "ASSAY_READOUT": "activation at 0.1 µM", "VALUE_MEASURED": "< 10%"}
{"COMPOUND": "Cc1cc(C)n2ccc(C(=O)NC(C)c3ccc(-c4cccnc4)cc3)c2n1 (stereo not shown)", "ASSAY_READOUT": "activation at 0.1 µM", "VALUE_MEASURED": "< 10%"}
{"COMPOUND": "Cc1cc(NC2CCOCC2)nc2c(C(=O)NC(C)(C)C3CC3)ccn12", "ASSAY_READOUT": "activation at 0.1 µM", "VALUE_MEASURED": "10 to 20%"}
{"COMPOUND": "Cc1cc(C)n2ccc(C(=O)NC3(c4ccccc4)CC3)c2n1", "ASSAY_READOUT": "activation at 0.1 µM", "VALUE_MEASURED": "10 to 20%"}
{"COMPOUND": "CC(C)(NC(=O)c1ccn2ccc(-c3ccc(F)cc3)nc12)C1CC1", "ASSAY_READOUT": "activation at 0.1 µM", "VALUE_MEASURED": "< 10%"}
{"COMPOUND": "Cc1cc(C)n2ccc(C(=O)NC(C)(C)c3ccc(F)cc3)c2n1", "ASSAY_READOUT": "activation at 0.1 µM", "VALUE_MEASURED": "> 20%"}
{"COMPOUND": "Cc1cc(N2CCOCC2)nc2c(C(=O)NC(C)(C)C3CC3)ccn12", "ASSAY_READOUT": "activation at 0.1 µM", "VALUE_MEASURED": "10 to 20%"}
{"COMPOUND": "CCc1ccc([C@@H](C)NC(=O)c2ccn3c(C)cc(C)nc23)cc1", "ASSAY_READOUT": "activation at 0.1 µM", "VALUE_MEASURED": "10 to 20%"}
{"COMPOUND": "Cc1cc(C)n2ccc(C(=O)NC(C3CC3)C(F)(F)F)c2n1 (stereo not shown)", "ASSAY_READOUT": "activation at 0.1 µM", "VALUE_MEASURED": "> 20%"}
{"COMPOUND": "Cc1cc(C)n2ccc(C(=O)NC(C)(C)C3CC3)c2n1", "ASSAY_READOUT": "activation at 0.1 µM", "VALUE_MEASURED": "> 20%"}
{"COMPOUND": "CCC(NC(=O)c1ccn2c(C)cc(C)nc12)c1ccc(Cl)cc1 (stereo not shown)", "ASSAY_READOUT": "activation at 0.1 µM", "VALUE_MEASURED": "> 20%"}
{"COMPOUND": "Cc1cc(C)n2ccc(C(=O)NC(C)c3ncc(-c4ccccc4)o3)c2n1 (stereo not shown)", "ASSAY_READOUT": "activation at 0.1 µM", "VALUE_MEASURED": "10 to 20%"}
{"COMPOUND": "CO[C@H]1CC[C@H](NC(=O)c2ccn3c(C)cc(-c4ccc(F)cc4)nc23)CC1", "ASSAY_READOUT": "activation at 0.1 µM", "VALUE_MEASURED": "10 to 20%"}
{"COMPOUND": "Cc1cc(C(F)F)nc2c(C(=O)N[C@@H](C)C3CC3)ccn12", "ASSAY_READOUT": "activation at 0.1 µM", "VALUE_MEASURED": "> 20%"}
{"COMPOUND": "Cc1cc(N2CCC(F)(F)CC2)nc2c(C(=O)NC(C)(C)C3CC3)ccn12", "ASSAY_READOUT": "activation at 0.1 µM", "VALUE_MEASURED": "10 to 20%"}
{"COMPOUND": "Cc1cc(C)n2ccc(C(=O)N[C@H](C)c3ccc4c(c3)OCO4)c2n1", "ASSAY_READOUT": "activation at 0.1 µM", "VALUE_MEASURED": "10 to 20%"}
{"COMPOUND": "Cc1cc(C)n2ccc(C(=O)NC(C)c3ccccc3-c3ccccc3)c2n1 (stereo not shown)", "ASSAY_READOUT": "activation at 0.1 µM", "VALUE_MEASURED": "< 10%"}
{"COMPOUND": "CCC(NC(=O)c1ccn2c(C)cc(C)nc12)c1cccc(Cl)c1 (stereo not shown)", "ASSAY_READOUT": "activation at 0.1 µM", "VALUE_MEASURED": "> 20%"}
{"COMPOUND": "CCCCO[C@H]1CC[C@H](NC(=O)c2ccn3c(C)cc(C4CCOCC4)nc23)CC1", "ASSAY_READOUT": "activation at 0.1 µM", "VALUE_MEASURED": "< 10%"}
{"COMPOUND": "Cc1cc(-c2cccnc2)nc2c(C(=O)NC(C3CC3)C(F)(F)F)ccn12 (stereo not shown)", "ASSAY_READOUT": "activation at 0.1 µM", "VALUE_MEASURED": "> 20%"}
{"COMPOUND": "CCC(NC(=O)c1ccn2c(C)cc(C)nc12)c1cccnc1 (stereo not shown)", "ASSAY_READOUT": "activation at 0.1 µM", "VALUE_MEASURED": "< 10%"}
{"COMPOUND": "Cc1c2c(nc3c(C(=O)N[C@H]4CC[C@H](OC(C)(C)C)CC4)ccn13)CCC2", "ASSAY_READOUT": "activation at 0.1 µM", "VALUE_MEASURED": "< 10%"}
{"COMPOUND": "Cc1cc(C)n2ccc(C(=O)NC(=O)C3CC3)c2n1", "ASSAY_READOUT": "activation at 0.1 µM", "VALUE_MEASURED": "< 10%"}
{"COMPOUND": "Cc1cc(C)n2ccc(C(=O)NC(CO)C34CC5CC(CC(C5)C3)C4)c2n1 (stereo not shown)", "ASSAY_READOUT": "activation at 0.1 µM", "VALUE_MEASURED": "< 10%"}
